# Test system: MAP4K5;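 further: KINOMEscan kinase panel screen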
# settings: concentration: 1 μM,replicates: in singlicate; n = 1
Label true when %Inh is at or above 2%; otherwise label false.

• CS(=O)(=O)Nc1ccc(-c2ccnc3[nH]ccc23)cc1 = false
• CC(=O)Nc1nc2cnc(Nc3cc(NC(=O)c4cccc(CC(C)(C)C#N)c4)ccc3C)nc2s1 = false
• Cl.Cl.NC[C@H](CC1CCCCC1)NC(=O)c1ccc(-c2ccnc3[nH]ccc23)s1 = true
• CCOC(=O)N1CCC(n2cnc(-c3ccc(F)cc3)c2-c2ccnc(N)n2)CC1 = true
• CN(c1cccc(CNc2nc(Nc3ccc4c(c3)CC(=O)N4)ncc2C(F)(F)F)c1)S(C)(=O)=O = false
• Cc1ccn2nc(-c3ccc(F)cc3)c(-c3ccncc3)c2c1.Cl = false
• C[C@@H](Oc1cc(-n2cnc3cc(-c4ccncc4)ccc32)sc1C(N)=O)c1ccccc1Cl = true
• Cc1cccc2c(-c3ccncc3)c(-c3ccc(F)cc3)nn12.Cl = false
• Cn1cc(-c2cccc3c(N)c(C(N)=O)nnc23)cn1 = true
• Cn1ccc2ncnc(Oc3ccc(NC(=O)Nc4ccnc(C(F)(F)F)c4)c(Cl)c3)c21 = false
• COc1cc2nccc(Nc3ccc(Oc4ccccc4)cc3)c2cc1OC.Cl = false
